- procedure.summary: Pharmacokinetic study in mice
- Format: in vivo, mouse
- conditions.used: mouse, lung, ip, 5 mg/kg
measured.endpoint: AUC (ng·h/mL)
Just the number in ng·h/mL, nothing appended.

Give the measured AUC of COc1ccc2c(c1)C(=O)N1CCC[C@H]1c1c(C(=O)N(C)C)ncn1-2 [Compound 16] . 12.7

====

Listed molecules paired with reported Toxicity in BEAS 2B (Lung) LD50
- Test system: BEAS2B lung epithelial cells
- procedure.summary: In vitro cytotoxicity, Cell-Titer Glo viability, BEAS2B
- Type: cell-based
- conditions.used: 48 hours

INSERT INTO measurements (molecule, measured_endpoint, value_measured) VALUES
  ('COc1ccc2c(c1)C(=O)N1CCC[C@H]1c1c(C(=O)NC3CC3)ncn1-2', 'Toxicity in BEAS 2B (Lung) LD50', '>400 µM'),
  ('[2H]C([2H])([2H])Oc1ccc2c(c1)C(=O)N1CCC[C@H]1c1c(C(=O)SCC)ncn1-2 [Compound 13a]', 'Toxicity in BEAS 2B (Lung) LD50', '>100 µM'),
  ('[2H]C([2H])([2H])Oc1ccc2c(c1)C(=O)N1CCC[C@H]1c1c(C(=O)SC(C)(C)C)ncn1-2 [Compound 14a]', 'Toxicity in BEAS 2B (Lung) LD50', '>100 µM'),
  ('COc1ccc2c(c1)C(=O)N1CCC[C@H]1c1c(C(=O)OC(C(F)(F)F)C(F)(F)F)ncn1-2', 'Toxicity in BEAS 2B (Lung) LD50', '>400 µM'),
  ('[2H]C([2H])([2H])Oc1ccc2c(c1)C(=O)N1CCC[C@H]1c1c(C(=O)OCC(C)C)ncn1-2 [Compound 11a]', 'Toxicity in BEAS 2B (Lung) LD50', '>200 µM'),
  ('CC(C)(C)OC(=O)c1ncn2c1[C@@H]1CCCN1C(=O)c1cc(O)ccc1-2', 'Toxicity in BEAS 2B (Lung) LD50', '>400 µM');

Note: attention shifts to another entry.
For BEAS2B lung epithelial cells, provide Toxicity in BEAS 2B (Lung) LD50 of COc1ccc2c(c1)C(=O)N1CCC[C@H]1c1c(C(=O)SC(C)(C)C)ncn1-2 please. >100 µM

====

Parameter Toxicity in HEK293 (Kidney) LD50: see the listing below.
- System: HEK293 kidney cells
- Assay type: cell-based
- conditions.used: 48 hours, Cell-Titer Glo

Sample answers from the record:
INSERT INTO assay_data (compound, value_measured) VALUES
  ('[2H]C([2H])([2H])Oc1ccc2c(c1)C(=O)N1CCC[C@H]1c1c(C(=O)OC)ncn1-2 [Compound 10a]', '>400 µM'),
  ('COc1ccc2c(c1)C(=O)N1CCC[C@H]1c1c(C(=O)NC(C)(C)C)ncn1-2', '>200 µM');

Please turn your attention to the following entry.
Tell me the measured Toxicity in HEK293 (Kidney) LD50 of COc1ccc2c(c1)C(=O)N1CCC[C@H]1c1c(C(=O)O)ncn1-2 , please. >400 µM

====

- Test system: HepG2 liver cells
- procedure.summary: In vitro cytotoxicity, Cell-Titer Glo viability, HepG2
- Assay type: cell-based
- conditions.used: 48 hours
The entries below come with measured Toxicity in HEPG2 (Liver) LD50 values attached.

Would you please look over these solved cases?
INSERT INTO assay_data (compound, value_measured) VALUES
  ('[2H]C([2H])([2H])Oc1ccc2c(c1)C(=O)N1CCC[C@H]1c1c(C(=O)OC(C(F)(F)F)C(F)(F)F)ncn1-2 [Compound 12a]', '>400 µM'),
  ('[2H]C([2H])([2H])Oc1ccc2c(c1)C(=O)N1CCC[C@H]1c1c(C(=O)OC)ncn1-2 [Compound 10a]', '>400 µM'),
  ('[2H]C([2H])([2H])Oc1ccc2c(c1)C(=O)N1CCC[C@H]1c1c(C(=O)SCC)ncn1-2 [Compound 13a]', '>100 µM');

Can you share its Toxicity in HEPG2 (Liver) LD50? I mean this compound: [2H]C([2H])([2H])Oc1ccc2c(c1)C(=O)N1CCC[C@H]1c1c(C(=O)O)ncn1-2 [Compound 9a] >400 µM

Which Toxicity in HEPG2 (Liver) LD50 is reported for this compound? COc1ccc2c(c1)C(=O)N1CCC[C@H]1c1c(C(=O)SC(C)(C)C)ncn1-2 [Compound 14] >100 µM

Quick check: Toxicity in HEPG2 (Liver) LD50 of COc1ccc2c(c1)C(=O)N1CCC[C@H]1c1c(C(=O)N(C)C)ncn1-2 [Compound 16] ? >400 µM

Item CCSC(=O)c1ncn2c1[C@@H]1CCCN1C(=O)c1cc(OC)ccc1-2 [Compound 13] has what recorded Toxicity in HEPG2 (Liver) LD50? >100 µM

// Toxicity in HEPG2 (Liver) LD50 lookup, key: [2H]C([2H])([2H])Oc1ccc2c(c1)C(=O)N1CCC[C@H]1c1c(C(=O)NCC)ncn1-2 [Compound 17a] >400 µM

Looking for the measured Toxicity in HEPG2 (Liver) LD50 of [2H]C([2H])([2H])Oc1ccc2c(c1)C(=O)N1CCC[C@H]1c1c(C(=O)N(C)C)ncn1-2 [Compound 16a] , can you help? >400 µM

Form field: reported Toxicity in HEPG2 (Liver) LD50 of COC(=O)c1ncn2c1[C@@H]1CCCN1C(=O)c1cc(OC)ccc1-2 [Compound 10] >400 µM

Can you look up the measured Toxicity in HEPG2 (Liver) LD50 of [2H]C([2H])([2H])Oc1ccc2c(c1)C(=O)N1CCC[C@H]1c1c(C(=O)OCC)ncn1-2 [Compound 5a] for me? >400 µM

Any idea what Toxicity in HEPG2 (Liver) LD50 was measured for CCOC(=O)c1ncn2c1[C@@H]1CCCN1C(=O)c1cc(O)ccc1-2 [Compound 6] ? >400 µM

====

- procedure.summary: In vitro liver microsomal stability
- Type: in vitro ADME
- conditions.used: human, liver microsomes
measured.endpoint: remaining at 1 h

Query (molecule): COc1ccc2c(c1)C(=O)N1CCC[C@H]1c1c(C(=O)O)ncn1-2 ; field requested: remaining at 1 h < 80%

====

- Tested on: HEK293 kidney cells
- Type: cell-based
- conditions.used: 48 hours, Cell-Titer Glo
measured.endpoint: Toxicity in HEK293 (Kidney) LD50

Worked set:
INSERT INTO measurements (molecule, measured_endpoint, value_measured) VALUES
  ('CCSC(=O)c1ncn2c1[C@@H]1CCCN1C(=O)c1cc(OC)ccc1-2', 'Toxicity in HEK293 (Kidney) LD50', '>100 µM'),
  ('CCNC(=O)c1ncn2c1[C@@H]1CCCN1C(=O)c1cc(OC)ccc1-2', 'Toxicity in HEK293 (Kidney) LD50', '>400 µM'),
  ('COC(=O)c1ncn2c1[C@@H]1CCCN1C(=O)c1cc(OC)ccc1-2', 'Toxicity in HEK293 (Kidney) LD50', '>400 µM'),
  ('COc1ccc2c(c1)C(=O)N1CCC[C@H]1c1c(C(=O)OC(C(F)(F)F)C(F)(F)F)ncn1-2', 'Toxicity in HEK293 (Kidney) LD50', '>200 µM'),
  ('COc1ccc2c(c1)C(=O)N1CCC[C@H]1c1c(C(=O)OCC(C)C)ncn1-2', 'Toxicity in HEK293 (Kidney) LD50', '>100 µM'),
  ('CNC(=O)c1ncn2c1[C@@H]1CCCN1C(=O)c1cc(OC)ccc1-2', 'Toxicity in HEK293 (Kidney) LD50', '>100 µM'),
  ('CCOC(=O)c1ncn2c1[C@@H]1CCCN1C(=O)c1cc(OC)ccc1-2', 'Toxicity in HEK293 (Kidney) LD50', '>400 µM'),
  ('[2H]C([2H])([2H])Oc1ccc2c(c1)C(=O)N1CCC[C@H]1c1c(C(=O)N(C)C)ncn1-2 [Compound 16a]', 'Toxicity in HEK293 (Kidney) LD50', '>400 µM');

Entry [2H]C([2H])([2H])Oc1ccc2c(c1)C(=O)N1CCC[C@H]1c1c(C(=O)NC)ncn1-2 [Compound 15a] : reported Toxicity in HEK293 (Kidney) LD50 = ? >100 µM

Could you tell me which Toxicity in HEK293 (Kidney) LD50 is on file for [2H]C([2H])([2H])Oc1ccc2c(c1)C(=O)N1CCC[C@H]1c1c(C(=O)SCC)ncn1-2 [Compound 13a] ? >100 µM

Quick check: Toxicity in HEK293 (Kidney) LD50 of COc1ccc2c(c1)C(=O)N1CCC[C@H]1c1c(C(=O)NC3CC3)ncn1-2 ? >200 µM

Dear colleague, I am looking for the recorded Toxicity in HEK293 (Kidney) LD50 of the following molecule: COc1ccc2c(c1)C(=O)N1CCC[C@H]1c1c(C(=O)N(C)C)ncn1-2 >400 µM

Consider the molecule [2H]C([2H])([2H])Oc1ccc2c(c1)C(=O)N1CCC[C@H]1c1c(C(=O)SC(C)(C)C)ncn1-2 [Compound 14a] and give its measured Toxicity in HEK293 (Kidney) LD50. 16.8 ± 2.0 µM

Entry under review: [2H]C([2H])([2H])Oc1ccc2c(c1)C(=O)N1CCC[C@H]1c1c(C(=O)OCC(C)C)ncn1-2 [Compound 11a] . Reported Toxicity in HEK293 (Kidney) LD50? >100 µM

Given the entry COc1ccc2c(c1)C(=O)N1CCC[C@H]1c1c(C(=O)SC(C)(C)C)ncn1-2 , report its measured Toxicity in HEK293 (Kidney) LD50. 18.8 ± 2.4 µM

Toxicity in HEK293 (Kidney) LD50 for COc1ccc2c(c1)C(=O)N1CCC[C@H]1c1c(C(=O)OC(C)(C)C)ncn1-2 ? >100 µM
